Could you please report measured M65V, pure enzyme, rate of cleavage for the items listed next?
target: E. coli PNP mutant M65V (Escherichia coli, UniProt P0ABP8, M65V); conditions: Table III; pure enzyme; 100 μM substrate; HPLC; average of separate experiments
Sequence (P0ABP8 whole entry M65V): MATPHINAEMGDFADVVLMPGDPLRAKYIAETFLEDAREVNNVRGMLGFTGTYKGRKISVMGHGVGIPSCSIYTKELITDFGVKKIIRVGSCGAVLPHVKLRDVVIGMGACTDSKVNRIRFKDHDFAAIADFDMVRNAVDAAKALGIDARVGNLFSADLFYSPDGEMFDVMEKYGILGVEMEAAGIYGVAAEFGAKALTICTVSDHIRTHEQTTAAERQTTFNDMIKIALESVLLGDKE
One number for each entry, in nmol/mg/h.

These recorded examples may help you get a feel for the data.
Query: M65V, pure enzyme, rate of cleavage; subject: `CSC[C@H]1O[C@@H](n2cnc3c(N)nc(F)nc32)[C@H](O)[C@@H]1O` 2500

What value of M65V, pure enzyme, rate of cleavage has been reported for the following compound? CSC[C@H]1O[C@@H](n2cnc3c(N)ncnc32)[C@H](O)[C@@H]1O [5′-deoxy-5′-methylthio-adenosine] 690

---
Form field: reported M65V, pure enzyme, rate of cleavage of `Cc1ncnc2c1ncn2[C@@H]1O[C@H](C(C)(C)O)[C@@H](O)[C@H]1O` 230
